Values compiled from patent US7982047B2.

readout: melting point (°C)
One number for each entry, in °C.

1. CS(=O)(=O)c1ccc(C(=O)C(C(=O)C2CC2)c2nnc(C(F)(F)F)s2)c(Cl)c1 (stereo not shown) [Compound No 2918]
185
2. CS(=O)(=O)c1ccc(C(=O)C(C(=O)C(F)(F)F)c2ccccn2)c(Cl)c1 (stereo not shown) [Compound N-616]
189
3. CS(=O)(=O)c1ccc(C(=O)C(C(=O)C2CC2)c2ccc([N+](=O)[O-])cc2[N+](=O)[O-])c(Cl)c1 (stereo not shown)
67

### Prompt Given the compound CS(=O)(=O)c1ccc(C(=O)C(C(=O)C2CC2)n2cncn2)c(Cl)c1 (stereo not shown) [Compound No 460] , write its reported melting point.
### Response 162
